experiment: chemical genetic growth profiling, strain panel (AID 1159580);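 also: tested at 20 µM; growth read once vehicle control cultures reached saturation at 30 °C; 1 = growth at the plate median or of vehicle wells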; details: S. cerevisiae deletion strains, growth OD, locus YDL214C, strain PRR2, stronger effect = lower value
The campaign covered roughly 5,500 compounds. About 2,000 (36%) were called active. Roughly 18% stayed inconclusive and do not appear here. The list shows a part of the results.
result.type: normalized growth
Answers are plain numbers.

| chemical.string | normalized growth |
| --- | --- |
| N#CC(C#N)=Cc1ccc(-c2ccccc2C(F)(F)F)o1 | 0.901 |
| Cc1c(-c2ccnn2C(=O)c2ccco2)cnn1-c1ccccc1 | 0.904 |
| Cc1c(C(=O)N(Cc2ccccc2)Cc2cccs2)cnn1-c1ccc(Cl)cc1 | 0.947 |
| O=c1c2ccccc2[nH]c(=S)n1-c1cccc(C(F)(F)F)c1 | 0.908 |
| Cc1nc(-c2ccc(S(=O)(=O)Nc3ccc(Br)cc3Cl)s2)cs1 | 0.888 |

Noted for `O=C(Nc1ccc(OC(F)(F)F)cc1)OC1CN(C(c2ccccc2)c2ccccc2)C1` : its normalized growth reads 0.993

----------
assay: chemical genetic growth profiling, strain panel (AID 1159580); conditions: S. cerevisiae deletion strains, growth OD, locus YBR023C, strain chs3, stronger effect = lower value
About 2,000 (36%) of roughly 5,500 compounds were called active. Roughly 18% stayed inconclusive and do not appear here. The list shows a part of the results.
result.type: normalized growth
One number for each entry.

Below, 3 molecules whose answers are already recorded.
| molecule | normalized growth |
| --- | --- |
| CC(C)[C@@H]1CC[C@@H](C)C[C@H]1O | 1.01 |
| CC(C)COCC(CN(Cc1ccccc1)c1ccccc1)N1CCCC1 (centres undefined) | 1.02 |
| Cc1cccc(Nc2ccccc2C(=O)O)c1C | 0.919 |

Fill in normalized growth for each of the 2 molecules listed.
1. C=C1C(=O)O[C@@H]2C3O[C@]3(C)CC/C=C(\C)CC[C@@H]12 (some centres undefined)
2. OCCOCCN1CCN(C2=Nc3ccccc3Sc3ccccc32)CC1

0.964
1.01

----------
test: chemical genetic growth profiling, strain panel (AID 1159580); settings: S. cerevisiae deletion strains, growth OD, locus YHR129C, strain ARP1
About 2,000 (36%) of roughly 5,500 compounds were called active. Inconclusive results (about 18%) are left out. No stated cut-off is given here; in the data, active means normalized growth mostly below about 0.91 (no sharp cut-off); inconclusive means no clear call, values can overlap the other calls; inactive means mostly above about 0.92. Some of the results follow.
Please reply with one of these outcomes: T = active, F = inactive

Worked examples, 5 compounds total:
| compound | category.label |
| --- | --- |
| CO/N=C(\C(=O)NC1C(=O)N2C(C(=O)O)=C(COC(N)=O)CSC12)c1ccco1 (stereo unspecified) | T |
| NC[C@@H]1CC[C@@H](N)[C@@H](O[C@H]2[C@H](O)[C@@H](O[C@H]3O[C@H](CO)[C@@H](O)[C@H](N)[C@H]3O)[C@H](N)C[C@@H]2N)O1 | F |
| O=C1NC(=O)C(=O)C(=O)N1 | F |
| O=C1CC2OCC=C3CN4CC[C@]56c7ccccc7N1C5[C@H]2[C@H]3CC46 (stereo partly specified) | F |
| Nc1ccc(N=Nc2ccccc2)c(N)n1 | F |

Moving on to the next compound.
What did this assay record as the result for CC1(C)C2CC(=O)[C@]3(C)C(CC[C@@]4(C)[C@H](c5ccoc5)OC(=O)[C@H]5O[C@]543)[C@@]2(C)C=C[C@@H]1O (stereo partly specified) ?
F

----------
Would you kindly list normalized growth for each of these molecules?
test: chemical genetic growth profiling, strain panel (AID 1159580); conditions: S. cerevisiae deletion strains, growth OD, locus YOL147C, strain pex11, stronger effect = lower value
In all, about 5,500 compounds went through this assay and about 2,000 (36%) were called active. Another 18% or so got no clear call; they are omitted. The list shows a part of the results.

Fill in normalized growth for each of the 7 molecules listed.
1. O=C1CC2OCC=C3CN4CC[C@]56c7ccccc7N1C5[C@H]2[C@H]3CC46 (stereo partly specified)
2. CCOC(=O)[C@H](CCc1ccccc1)N[C@@H](C)C(=O)N1[C@H](C(=O)O)C[C@@H]2CCC[C@@H]21
3. CC1(C)NC(=O)N(c2ccc([N+](=O)[O-])c(C(F)(F)F)c2)C1=O
4. O=S1OCC2C(CO1)C1(Cl)C(Cl)=C(Cl)C2(Cl)C1(Cl)Cl (stereo unspecified)
5. COc1ccc(CCN2CCC(Nc3nc4ccccc4n3Cc3ccc(F)cc3)CC2)cc1
6. C#CCCCCCCCCCCCC(O)CC(O)COC(C)=O (stereo unspecified)
7. CC(=O)OCC(OC(C)=O)C(OC(C)=O)C(OC(C)=O)C(OC(C)=O)C(COC(C)=O)OC(C)=O (stereo unspecified)

["0.995 (inactive)", "1.01 (inactive)", "0.976 (inactive)", "0.991 (inactive)", "0.99 (inactive)", "0.953 (inactive)", "0.997 (inactive)"]

----------
assay: chemical genetic growth profiling, strain panel (AID 1159580); conditions: S. cerevisiae deletion strains, growth OD, locus YNL271C, strain bni1, stronger effect = lower value
The campaign covered roughly 5,500 compounds. About 2,000 (36%) were called active. Inconclusive results (about 18%) are left out. Some of the results follow.
result.type: normalized growth
Numbers only.

Below, 3 compounds whose answers are already recorded.
| compound | result.type | value |
| --- | --- | --- |
| Cc1cc(NC(=O)C2=C(O)c3ccccc3S(=O)(=O)N2C)no1 | normalized growth | 0.923 |
| O=C(O)CN(CC(=O)O)Cc1cc2c(-c3ccccc3C(=O)O)c3cc(CN(CC(=O)O)CC(=O)O)c(=O)cc-3oc2cc1O | normalized growth | 1.01 |
| CCOC(=O)[C@H](CCc1ccccc1)N[C@@H](C)C(=O)N1[C@H](C(=O)O)C[C@@H]2CCC[C@@H]21 | normalized growth | 1.02 |

Noted for C=C1C(C)C2C(Cc3ccccc3)NC(=O)C23OC(=O)/C=C/C(O)CCCC(C)C/C=C/C3C1O (centres undefined) : its normalized growth reads 0.998

----------
assay: chemical genetic growth profiling, strain panel (AID 1159580);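 also: tested at 20 µM; growth read once vehicle control cultures reached saturation at 30 °C; 1 = growth at the plate median or of vehicle wells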; details: S. cerevisiae deletion strains, growth OD, locus YBR021W, strain FUR4
The whole screen tested about 5,500 compounds, of which about 2,000 (36%) were called active. Inconclusive results (about 18%) are left out. Cut-off read from the data, not from the text of the source: active = normalized growth mostly below about 0.91 (no sharp cut-off); inconclusive = no clear call, values can overlap the other calls; inactive = mostly above about 0.92. Some of the results follow.
Please reply with one of these outcomes: active, inactive

| compound | category.label |
| --- | --- |
| O=C(O)c1ccccc1-c1c2cc(Br)c(=O)cc-2oc2[c]([Hg])c(O)c(Br)cc12 | active |
| Cc1cccc(C(=O)O)c1O | inactive |

What did this assay record as the result for COc1cc2c(cc1OC)C1Cc3ccc(OC)c(OC)c3CN1CC2 (stereo not drawn) ?
inactive

What did this assay record as the result for CCC(C)c1cnc(CC(C)C)c(=O)n1O (stereo not drawn) ?
inactive

What did this assay record as the result for CC1=CC2C(CC1=O)C(C)=CCC2C(C)C (stereo not drawn) ?
inactive

----------
test: chemical genetic growth profiling, strain panel (AID 1159580);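 also: tested at 20 µM; growth read once vehicle control cultures reached saturation at 30 °C; 1 = growth at the plate median or of vehicle wells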; conditions: S. cerevisiae deletion strains, growth OD, locus YHR082C, strain KSP1, stronger effect = lower value
Out of some 5,500 compounds screened, about 2,000 (36%) were called active. About 18% were inconclusive and are not listed. Some of the results follow.
result.type: normalized growth
One number for each entry.

| compound | normalized growth |
| --- | --- |
| S=c1[nH]nc(Nc2ccc(I)cc2)s1 | 0.653 |
| O=C(Nc1ccc(OC(F)(F)F)cc1)OC1CN(C(c2ccccc2)c2ccccc2)C1 | 1.06 |
| O=[N+]([O-])c1ccc2c(c1)NC(c1ccc([N+](=O)[O-])s1)O2 (configuration not stated) | 0.106 |
| FC(F)(F)c1ccnc(N2CCCN(C(=S)Nc3ccc(Cl)cc3Cl)CC2)n1 | 1.08 |
| Cc1cccc(NC(=S)NNC(=O)CSCc2cccc3ccccc23)c1 | 0.983 |

Fill in normalized growth for each of the 2 compounds listed.
1. FC(F)(F)c1cccc(-n2c(CSCc3cccc4ccccc34)n[nH]c2=S)c1
2. O=C(NNc1ccc(I)cc1)c1cc(Cl)cc(Cl)c1

1. 1.09
2. 0.848

----------
Would you kindly list normalized growth for each of these compounds?
test: chemical genetic growth profiling, strain panel (AID 1159580);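 also: tested at 20 µM; growth read once vehicle control cultures reached saturation at 30 °C; 1 = growth at the plate median or of vehicle wells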; conditions: S. cerevisiae deletion strains, growth OD, locus YDR054C, strain cdc34, stronger effect = lower value
Among all 5,500 compounds or so, about 2,000 (36%) were called active. Inconclusive results (about 18%) are left out. This is one part of the list.
One number for each entry.

Below, 4 compounds whose answers are already recorded.
| compound | value |
| --- | --- |
| S=c1[nH]nc(Nc2ccc(I)cc2)s1 | 0.912 |
| O=[N+]([O-])c1ccc2oc(C(O)c3cccc(Cl)c3)cc2c1 (configuration not stated) | 0.951 |
| O=C(Nc1ccc(OC(F)(F)F)cc1)N1CCN(c2nc(-c3ccccc3)ns2)CC1 | 1 |
| O=C(/C=C/Sc1nc2ccccc2s1)c1ccc(Cl)cc1 | 0.969 |

Fill in normalized growth for each of the 3 compounds listed.
1. Cc1onc(-c2c(Cl)cccc2Cl)c1C(=O)NC(C)(C)CC(C)(C)C
2. O=C(Nc1ccc(Cl)cc1)OCCSc1nc2ccccc2s1
3. Cc1onc(-c2c(Cl)cccc2Cl)c1C(=O)NNc1c(Cl)cccc1Cl

0.995
0.973
0.972
